// data source = ChEMBL document CHEMBL1138841

test: Oral bioavailability in rat; assay type: ADME, organism-based; details: in vivo
assay-readout: bioavailability (%)
Write the answer as a number in %, unit excluded.

Q: Kindly indicate its recorded bioavailability. Item: `Cc1cc(-c2nncc3c(C(C)(C)C)c(OCc4ncnn4C)nn23)no1`
A: 52

---

target: GABA-A receptor; alpha-6/beta-3/gamma-2 (Homo sapiens, UniProt P18507+P28472+Q16445); test: Binding affinity towards gamma-aminobutyric-acid GABA-A receptor alpha-6-beta-3-gamma-2
Sequence (P18507 whole entry): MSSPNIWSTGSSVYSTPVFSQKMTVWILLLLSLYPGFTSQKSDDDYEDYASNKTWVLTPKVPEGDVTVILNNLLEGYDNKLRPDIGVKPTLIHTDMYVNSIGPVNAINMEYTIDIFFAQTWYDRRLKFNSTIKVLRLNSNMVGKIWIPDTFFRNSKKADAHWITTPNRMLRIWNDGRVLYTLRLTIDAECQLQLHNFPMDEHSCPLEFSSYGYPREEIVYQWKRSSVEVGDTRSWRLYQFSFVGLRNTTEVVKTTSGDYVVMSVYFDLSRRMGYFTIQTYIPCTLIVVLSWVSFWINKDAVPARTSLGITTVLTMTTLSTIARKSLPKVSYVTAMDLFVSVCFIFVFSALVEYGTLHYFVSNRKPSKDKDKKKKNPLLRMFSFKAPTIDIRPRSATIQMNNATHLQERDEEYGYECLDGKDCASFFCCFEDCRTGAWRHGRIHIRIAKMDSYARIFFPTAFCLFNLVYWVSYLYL
Sequence (P28472 whole entry): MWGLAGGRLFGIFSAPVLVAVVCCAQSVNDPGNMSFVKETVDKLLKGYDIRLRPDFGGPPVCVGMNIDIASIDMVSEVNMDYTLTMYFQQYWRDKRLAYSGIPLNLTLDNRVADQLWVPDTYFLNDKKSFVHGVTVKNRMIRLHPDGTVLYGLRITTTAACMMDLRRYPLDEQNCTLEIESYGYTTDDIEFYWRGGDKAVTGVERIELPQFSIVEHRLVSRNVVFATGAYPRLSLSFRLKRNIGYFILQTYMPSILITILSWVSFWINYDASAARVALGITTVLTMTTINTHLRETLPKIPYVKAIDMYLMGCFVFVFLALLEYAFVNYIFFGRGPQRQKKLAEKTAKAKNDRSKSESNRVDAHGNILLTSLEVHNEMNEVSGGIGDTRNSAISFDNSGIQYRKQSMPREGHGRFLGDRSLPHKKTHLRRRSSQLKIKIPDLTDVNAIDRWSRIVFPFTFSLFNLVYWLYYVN
Sequence (Q16445 whole entry): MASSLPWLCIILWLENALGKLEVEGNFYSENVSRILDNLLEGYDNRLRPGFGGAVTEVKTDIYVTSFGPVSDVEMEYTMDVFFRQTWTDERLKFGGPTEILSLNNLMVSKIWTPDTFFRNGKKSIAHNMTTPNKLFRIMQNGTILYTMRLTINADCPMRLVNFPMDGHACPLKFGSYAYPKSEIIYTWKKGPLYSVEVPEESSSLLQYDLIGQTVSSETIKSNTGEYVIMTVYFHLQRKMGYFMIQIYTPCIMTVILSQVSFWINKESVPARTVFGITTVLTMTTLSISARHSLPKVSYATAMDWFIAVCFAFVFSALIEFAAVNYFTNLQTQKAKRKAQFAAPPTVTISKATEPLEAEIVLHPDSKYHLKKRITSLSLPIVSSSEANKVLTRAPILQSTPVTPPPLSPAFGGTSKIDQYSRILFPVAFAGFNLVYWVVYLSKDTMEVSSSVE
assay-readout: Ki

Q: Report the value of Ki obtained on GABA-A receptor; alpha-6/beta-3/gamma-2 (Homo sapiens, UniProt P18507+P28472+Q16445) for `Cc1cc(-c2nncc3c(C(C)(C)C)c(OCc4ncnn4C)nn23)no1` .
A: > 4 µM
